Source of measurements: ChEMBL document CHEMBL1132747

procedureSummary: Inhibitory activity of compound was evaluated against thrombin-S-2238; not detectable
assayContext: read-out: IC50
reportedEndpoint: IC50 (µM)
Please respond with the number in µM and leave the unit unwritten.

Ask: Query: IC50; subject: Cc1nc(C)c(CCCNC(=O)C(Cc2ccc(OC(=O)OCc3ccccc3Br)cc2)NC(=O)[C@H]2CC[C@H](CN)CC2)nc1O (stereo partly specified)
Result: 490

----------
procedureSummary: Inhibitory activity of compound was evaluated against thrombin-fibrinogen (Fg)
reportedEndpoint: IC50

The examples below pair each entry with its known result.
CC(C)CCNC(=O)C(Cc1ccc(OC(=O)OCc2ccccc2Br)cc1)NC(=O)[C@H]1CC[C@H](CN)CC1 (stereo partly drawn) ... > 100 µM
NC[C@H]1CC[C@H](C(=O)NC(Cc2ccccc2)C(=O)Nc2ccc(CC(=O)O)cc2)CC1 (stereo partly drawn) ... > 1000 µM

# input for lookup
Ask: Query: IC50; subject: CCCCCCCCOC(=O)[C@H]1CC[C@H](CNC(=O)C(Cc2ccc(OC(=O)OCc3ccccc3Br)cc2)NC(=O)[C@H]2CC[C@H](CN)CC2)CC1 (stereo partly drawn)
Result: > 10 µM
